Where these numbers come from: the supplement of paper PMC4466140

target: SpAbp1-D1; experiment: SPOT peptide array binding signal intensity (averaged, normalized) (arbitrary units (background-subtracted, floor 0; scale differs between SH3 domains)); higher = stronger binding of the SH3 domain to the peptide
# maps each entry to its SPOT peptide array binding signal intensity
measuredMetric: SPOT peptide array binding signal intensity

binder: GQYRRTIVIPRRFFT
valueObserved: 242

binder: VATSTSPKLPPRGKQ
valueObserved: 97

binder: GKKVRPLLVLLLSRA
valueObserved: 52.5

binder: RKRRTHLRLPLIRSN
valueObserved: 91.2

binder: IKKRNKIRLPSGSPE
valueObserved: 512

binder: KLSRGRYGLPLSSRP
valueObserved: 146

binder: LFMKGTPEFPKSGFS
valueObserved: 52.5
